Exercise: state measured Percent Effect for each of the compounds provided.
Target: Proteasome subunit beta (Trypanosoma cruzi) (UniProt O96673)
Sequence (O96673 as listed by the source): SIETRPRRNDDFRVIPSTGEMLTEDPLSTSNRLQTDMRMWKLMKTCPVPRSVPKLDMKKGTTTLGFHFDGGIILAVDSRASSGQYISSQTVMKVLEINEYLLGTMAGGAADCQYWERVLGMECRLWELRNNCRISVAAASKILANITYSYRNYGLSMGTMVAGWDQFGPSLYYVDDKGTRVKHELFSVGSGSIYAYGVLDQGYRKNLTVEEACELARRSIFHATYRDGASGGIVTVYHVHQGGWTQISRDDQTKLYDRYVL
Assay: Trypanosoma cruzi proteasome chymotrypsin-like activity (TcProtChymo) assay. Note: in the data most compounds retested in dose-response had high values.
Assay type: functional
Set-up: scale not given: direction of the effect not stated beside the values
Settings: 9.37 µM
Please provide the amount together with its unit, number first.

| compound | Percent Effect |
| --- | --- |
| NC(=O)COc1cccc(C(=O)N2CCCC(n3ccnc3)C2)c1 (stereo unspecified) | -4.67% |
| CS(=O)(=O)NC[C@]12COC[C@H]1CN(CC1CCCC1)C2 | 20.1% |

Batch: Percent Effect for all items listed.
1. CCc1nc(CN2CCN(c3ncnc4cc(F)ccc34)CC2)no1
2. COc1ccc(-c2csc(N)c2C#N)cc1OC
3. Cc1nc(C)n(CC2CCCN2CC(=O)Nc2cc(C(C)C)no2)n1 (stereo unspecified)
4. CC(C)c1nnc2n1CCN(C(=O)c1ccc(CN(C)C)cc1)C2
5. N#Cc1ccc(N2CCCN(C(=O)CC3CCCO3)CC2)cc1 (stereo unspecified)
6. CN(Cc1nnc2n1CCC2)C(=O)Cc1ccc2c(c1)OCCO2
7. COC(=O)CCC(=O)N1CCc2[nH]nc(-c3ccc4c(c3)OCO4)c2C1
8. Cn1cc(CNc2ncnc3c2CCN(Cc2ccsc2)CC3)cn1

1: 9.65%; 2: 7.02%; 3: 8.21%; 4: 12.5%; 5: -2.34%; 6: 13.7%; 7: 0.258%; 8: 17.1%

Percent Effect of `COCc1cn([C@@H]2c3ccccc3C3(CCNCC3)[C@H]2O)nn1` on Proteasome subunit beta (Trypanosoma cruzi) (UniProt O96673)?
3.16%

====

Exercise: state measured Percent Effect for each of the compounds provided.
Molecular target: Arginase-2, mitochondrial (Homo sapiens)
Sequence (whole entry): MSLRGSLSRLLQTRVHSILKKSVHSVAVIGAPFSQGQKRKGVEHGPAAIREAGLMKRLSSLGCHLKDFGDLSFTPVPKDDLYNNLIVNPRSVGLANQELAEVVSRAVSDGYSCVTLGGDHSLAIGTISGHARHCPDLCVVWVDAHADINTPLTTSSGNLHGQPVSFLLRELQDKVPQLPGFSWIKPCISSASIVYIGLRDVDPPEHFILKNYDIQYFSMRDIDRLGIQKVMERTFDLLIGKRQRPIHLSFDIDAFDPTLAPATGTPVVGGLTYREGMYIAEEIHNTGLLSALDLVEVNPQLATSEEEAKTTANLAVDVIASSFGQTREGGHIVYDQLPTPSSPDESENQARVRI
Test: in vitro enzyme assay to detect the production of urea directly proportional to the activity of Arginase II; note: in the data most compounds retested in dose-response had high values
Assay type: functional
Set-up: scale not given: direction of the effect not stated beside the values
Conditions: 33.3 µM
Give bare numbers, in %.

// known answers, use as guide
| compound | endpoint.name | result.units | numeric.value |
| --- | --- | --- | --- |
| NC(=O)C1(Cc2ccccc2-c2ccccc2)CCCN(CC2CC2)C1 (configuration not stated) | Percent Effect | % | 0.233 |
| O=C(CC1CCCC1)N1CCCC1c1nc(O)cc(-c2ccccn2)n1 (configuration not stated) | Percent Effect | % | -4.41 |
| CN1CCC(NC(=O)NCc2csc(Br)c2)CC1 | Percent Effect | % | -3.88 |
| O=C(CSc1ccncc1)N1C[C@H]2CC[C@@H]1CN(Cc1cccnc1)C2 | Percent Effect | % | 2.27 |

Batch: Percent Effect for all items listed.
1. CC(=O)N1CCC(CN2CCN(Cc3nccn3C)C(C)C2)CC1 (configuration not stated)
2. Cc1cccc(-c2nc(C)nn2CC(=O)N(C)C2CC2)c1
3. Cc1nc(C)n(CC2CCCN2CC(=O)Nc2ccnn2C(C)C)n1 (configuration not stated)
4. CC(C)c1nn(C)c(N(C)C)c1CNCc1ccccc1CN(C)C
5. COCc1n[nH]/c(=N/C(=O)COc2cnc(C)cc2O)s1
6. CCn1cnnc1CNC(=O)N1CCCN(C(C)=O)CC1
7. COc1ccc(CC(=O)N(C)Cc2nnc3ccccn23)cc1
8. CNS(=O)(=O)c1cccc(C(C)NCc2ccccc2)c1 (configuration not stated)

1: 4.25; 2: -3.2; 3: 2.16; 4: -5.36; 5: -1.18; 6: 4.84; 7: -6.53; 8: 1.67

Batch: Percent Effect for all items listed.
1. CSc1ccccc1CN1CCn2nc(CNC(C)=O)cc2C1
2. O=C(NCCn1ccnc1)c1cccc(F)c1
3. CCc1nc(C2CCCN(C(=O)c3cnn(CC)c3)C2)no1 (configuration not stated)
4. COc1cccc(N2CCN(Cc3ncc[nH]3)CC2=O)c1

[18.2, 0.36, 1.18, -0.442]

====

Exercise: state measured Percent Effect for each of the molecules provided.
Biological target: Tyrosyl-tRNA synthetase, putative (Trypanosoma cruzi (strain CL Brener)) (UniProt Q4DSP6)
Sequence (Q4DSP6 as listed by the source): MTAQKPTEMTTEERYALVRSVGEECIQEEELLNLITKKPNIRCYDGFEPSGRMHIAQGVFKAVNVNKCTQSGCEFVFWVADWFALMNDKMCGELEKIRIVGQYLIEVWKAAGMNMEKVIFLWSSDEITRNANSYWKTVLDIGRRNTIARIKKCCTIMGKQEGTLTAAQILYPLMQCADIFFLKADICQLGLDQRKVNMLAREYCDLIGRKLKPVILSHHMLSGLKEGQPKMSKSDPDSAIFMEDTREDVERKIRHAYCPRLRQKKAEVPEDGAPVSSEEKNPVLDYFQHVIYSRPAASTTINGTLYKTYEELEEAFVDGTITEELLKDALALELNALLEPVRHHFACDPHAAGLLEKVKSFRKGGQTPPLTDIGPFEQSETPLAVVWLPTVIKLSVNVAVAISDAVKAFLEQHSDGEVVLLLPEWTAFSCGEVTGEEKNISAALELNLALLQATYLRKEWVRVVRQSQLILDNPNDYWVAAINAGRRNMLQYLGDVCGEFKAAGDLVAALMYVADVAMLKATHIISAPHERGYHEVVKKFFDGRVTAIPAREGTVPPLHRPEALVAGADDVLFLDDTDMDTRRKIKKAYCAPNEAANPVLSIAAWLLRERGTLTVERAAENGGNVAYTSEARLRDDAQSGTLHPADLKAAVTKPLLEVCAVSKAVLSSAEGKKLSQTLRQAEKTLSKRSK
Test: Trypanosoma cruzi tyrosyl tRNA synthetase (TcYRS) SOP
Assay type: functional
Parameters: scale not given: direction of the effect not stated beside the values
Conditions: 30 µM

// known answers, use as guide
| molecule | target | Percent Effect |
| --- | --- | --- |
| CCn1ccnc1CN1CCN(Cc2ccc(C#N)cc2)CC1 | Tyrosyl-tRNA synthetase, putative (Trypanosoma cruzi (strain CL Brener)) (UniProt Q4DSP6) | 19.5% |
| CC(O)CN1CCN(C(=O)c2ccc(Cn3cccn3)cc2)CC1 (centres undefined) | Tyrosyl-tRNA synthetase, putative (Trypanosoma cruzi (strain CL Brener)) (UniProt Q4DSP6) | 25.9% |
| Cc1nn(C)cc1CN1CCC(C2Nc3ccccc3S(=O)(=O)N2)CC1 (centres undefined) | Tyrosyl-tRNA synthetase, putative (Trypanosoma cruzi (strain CL Brener)) (UniProt Q4DSP6) | 14.3% |

Batch: Percent Effect for all items listed.
1. CC(C(=O)Nc1ccc(N2CCCC2)nc1)n1ccnc1 (centres undefined)
2. CSCCCN1CCn2nc(CNC(C)=O)cc2C1
3. Cc1ccc(CNC(=O)Nc2cc(C(F)(F)F)c[nH]c2=O)cn1
4. Cc1noc(C)c1CCC(=O)N1CCN(CCn2cncn2)CC1
5. O=C(Cc1cccc(Cl)c1)N[C@@H]1CCNC[C@H]1O
6. CC(C)NS(=O)(=O)c1cc(C(=O)O)cc(-c2ccccc2CN(C)C)c1
7. CC(C(N)=O)N(C)CCCc1cc(-c2ccccc2)no1 (centres undefined)

1: 16.1%; 2: -2.5%; 3: 12.8%; 4: 10.3%; 5: 16.1%; 6: 3.7%; 7: 13.4%

Batch: Percent Effect for all items listed.
1. CC(C)c1nc(CC(=O)Nc2nc(CN3CCCCCC3)cs2)cs1
2. CCc1ccc(CCC(=O)N2CCOCC2c2ncon2)cc1 (centres undefined)
3. CC(C)Nc1nc2c(cc1C(=O)N(C)C)CCNCC2
4. CCn1nccc1CNC(=O)NC1CCCCC1

23.5%
1.22%
-7.5%
3.7%

Batch: Percent Effect for all items listed.
1. O=C(O)c1nnn(-c2ccc(F)c(F)c2)c1-c1ccncc1
2. Cc1noc([C@H]2C[C@@H]3CCN(C(=O)N(C)C)C[C@H]3O2)n1
3. CCc1nnc2n1CCN(C(=O)CN(C)Cc1ccccc1)C2
4. CCC(C)(NCC(=O)N(c1ccccc1)C(C)C)c1nc(C)cs1 (centres undefined)
5. O=C(c1cccc(=O)[nH]1)N(Cc1ccsc1)CC1CCCO1 (centres undefined)
6. CC(NC(=O)N(C)Cc1ccsc1)c1ccc2c(c1)OCO2 (centres undefined)
7. CCNc1cc2c(nn1)CCN(C(=O)c1ccc3cc[nH]c3c1)C2

1. 2.6%
2. 2.56%
3. 18.5%
4. 13.6%
5. 17.1%
6. 19.5%
7. 19.5%

====

Exercise: state measured Percent Effect for each of the molecules provided.
Biological target: Chromo domain-containing protein 1 (Saccharomyces cerevisiae (strain ATCC 204508 / S288c) (Baker's yeast)) (UniProt P32657)
Sequence (P32657 whole entry, the tested form may be a part): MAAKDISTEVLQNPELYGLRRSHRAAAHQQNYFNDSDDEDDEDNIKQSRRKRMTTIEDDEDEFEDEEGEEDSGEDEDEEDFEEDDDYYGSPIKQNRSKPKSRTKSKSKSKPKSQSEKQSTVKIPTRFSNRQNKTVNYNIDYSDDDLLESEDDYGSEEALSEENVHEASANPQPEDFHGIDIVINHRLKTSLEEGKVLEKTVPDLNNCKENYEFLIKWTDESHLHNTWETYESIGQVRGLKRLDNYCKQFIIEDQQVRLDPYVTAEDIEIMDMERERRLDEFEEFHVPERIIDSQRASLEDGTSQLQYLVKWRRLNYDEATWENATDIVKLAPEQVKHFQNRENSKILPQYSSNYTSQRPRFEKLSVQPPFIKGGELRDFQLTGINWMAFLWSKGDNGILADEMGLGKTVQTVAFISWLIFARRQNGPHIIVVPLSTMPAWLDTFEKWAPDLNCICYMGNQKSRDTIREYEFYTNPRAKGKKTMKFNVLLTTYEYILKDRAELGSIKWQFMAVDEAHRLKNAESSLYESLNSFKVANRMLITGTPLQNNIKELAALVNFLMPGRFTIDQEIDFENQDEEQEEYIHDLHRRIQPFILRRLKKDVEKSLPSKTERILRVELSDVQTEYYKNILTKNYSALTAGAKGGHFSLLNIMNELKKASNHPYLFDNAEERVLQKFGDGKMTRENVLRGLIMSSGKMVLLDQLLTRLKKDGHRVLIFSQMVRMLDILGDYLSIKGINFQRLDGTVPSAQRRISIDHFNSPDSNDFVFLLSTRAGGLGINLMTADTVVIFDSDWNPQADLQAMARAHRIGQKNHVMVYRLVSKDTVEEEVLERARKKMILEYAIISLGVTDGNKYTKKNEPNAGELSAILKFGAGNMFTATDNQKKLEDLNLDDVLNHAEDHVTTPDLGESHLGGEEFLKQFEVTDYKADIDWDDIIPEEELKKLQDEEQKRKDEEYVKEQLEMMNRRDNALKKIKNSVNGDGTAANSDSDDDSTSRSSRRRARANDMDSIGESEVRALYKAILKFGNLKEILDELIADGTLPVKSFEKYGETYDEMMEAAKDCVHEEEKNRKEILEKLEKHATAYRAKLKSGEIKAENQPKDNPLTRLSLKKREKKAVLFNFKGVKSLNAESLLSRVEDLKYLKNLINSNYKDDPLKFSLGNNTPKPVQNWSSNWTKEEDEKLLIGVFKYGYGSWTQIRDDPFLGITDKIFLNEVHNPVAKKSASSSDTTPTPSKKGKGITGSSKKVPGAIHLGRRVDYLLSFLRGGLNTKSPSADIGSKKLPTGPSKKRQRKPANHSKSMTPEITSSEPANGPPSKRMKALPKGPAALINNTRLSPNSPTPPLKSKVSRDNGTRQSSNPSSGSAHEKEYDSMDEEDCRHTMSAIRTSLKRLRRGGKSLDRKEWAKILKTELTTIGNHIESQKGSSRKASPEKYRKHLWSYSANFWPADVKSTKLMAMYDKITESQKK
Test: ScCHD-1 Enzyme Inhibition Assay; note: in the data most compounds retested in dose-response had high values
Assay type: functional
Set-up: scale not given: direction of the effect not stated beside the values
Details: 30 µM
Please provide the amount together with its unit, number first.

| molecule | Percent Effect |
| --- | --- |
| CN(C)CCOCC1CN(C(=O)[C@H]2CCCO2)Cc2ccnn2C1 (stereo partly specified) | 3.03% |
| CC(OCC(F)(F)F)C(=O)NCc1ccc(-n2cncn2)nc1 (stereo unspecified) | -24% |

Batch: Percent Effect for all items listed.
1. O=C(NCc1cccc(F)c1)N1CCC2(CC(=O)N(c3ccsc3)C2)C1 (stereo unspecified)
2. Cc1cnn(CCNCc2ccc(OCc3csc(C)n3)cc2)c1
3. CCSCCNC(=O)C(c1cccc(C)c1)N(C)C (stereo unspecified)
4. Cc1ccc(N2CCCC(NCC(=O)NC3CCOCC3)C2)nn1 (stereo unspecified)
5. Cc1cccc(CN2C(=O)CC[C@@H]3[C@H]2CCN3CC2CCOCC2)n1

1: -4.87%; 2: -5.91%; 3: -11.3%; 4: -2.4%; 5: -4.59%
